Values compiled from PubChem BioAssay (NCI).

System: HCT-15 colon
assay comment: NCI tumour cell line growth inhibition, 48 h
measured metric: GI50

The following molecules have reported results that may help.
* O=C1/C(=C/c2ccc(Cl)cc2)CCCc2ccc(F)cc21 | 22.1 µM
* CSc1ccc(/C=C2\CNC/C(=C\c3ccc(SC)cc3)C2=O)cc1 | 112 mg/L
* Fc1cccc(COc2ccc(Nc3ncnc4sc(-c5ccco5)cc34)cc2Cl)c1 | > 25 µM
* CC[C@H](C)[C@H](NC(=O)c1cnccn1)C(=O)N(C)[C@H](C[C@@H](OC(C)=O)c1nc(C(=O)N[C@@H](Cc2ccccc2)C[C@H](C)C(=O)OC)cs1)C(C)C | 1.06 µM
* CCN(CCCCCCCCCCN1CC(=O)N(CCCCCCCCCCN(CC)Cc2ccccc2OC)CC1=O)Cc1ccccc1OC | 1.55 µM

query: Tell us which GI50 value is on record for COc1ccc(Cl)cc1Nc1nc(C(F)(F)F)ccc1C(=O)NN
result: 1.2 µM
